All values here come from ChEMBL document CHEMBL4417641.

Tested on: NB-4
experimentNotes: Cytotoxicity against human NB4 cells assessed as inhibition of cell growth incubated for 48 hrs by MTS assay
Format: functional, cell-based
conditionsUsed: NB-4, 48 h
Please go through the items and note down their IC50.

Input: For the compound Cc1noc(C)c1-c1cc(Cl)c(Nc2ccccc2C(=O)NO)c(Cl)c1 , what IC50 is on record?
Output: 4.7 µM

Input: Please give the result for Cc1noc(C)c1-c1cc(Cl)c(Nc2ccccc2-c2noc(=O)[nH]2)c(Cl)c1 too.
Output: 6.3 µM

---

Dear all, this message contains IC50 results, target or system Alpha-ketoglutarate-dependent dioxygenase FTO (Homo sapiens, UniProt Q9C0B1).
A number alone suffices; assume nM.

Input: For the molecule Cc1noc(C)c1-c1cc(Cl)c(Nc2ccccc2-c2noc(=O)[nH]2)c(Cl)c1 , what IC50 is on record?
Output: 1100

Input: Please give the result for O=C(O)c1ccc(-c2cc(Cl)c(Nc3ccccc3C(=O)O)c(Cl)c2)s1 too.
Output: 1200

Input: Please give the result for Cc1noc(C)c1-c1cc(Cl)c(Nc2ccccc2C(=O)NO)c(Cl)c1 too.
Output: 1600
